- Assay target: human ABHD12 (Homo sapiens)
- Construct: expressed in transfected cells; host or cells: HEK293T (transient transfection; membrane fraction)
- Sequence (Q8N2K0 1-398): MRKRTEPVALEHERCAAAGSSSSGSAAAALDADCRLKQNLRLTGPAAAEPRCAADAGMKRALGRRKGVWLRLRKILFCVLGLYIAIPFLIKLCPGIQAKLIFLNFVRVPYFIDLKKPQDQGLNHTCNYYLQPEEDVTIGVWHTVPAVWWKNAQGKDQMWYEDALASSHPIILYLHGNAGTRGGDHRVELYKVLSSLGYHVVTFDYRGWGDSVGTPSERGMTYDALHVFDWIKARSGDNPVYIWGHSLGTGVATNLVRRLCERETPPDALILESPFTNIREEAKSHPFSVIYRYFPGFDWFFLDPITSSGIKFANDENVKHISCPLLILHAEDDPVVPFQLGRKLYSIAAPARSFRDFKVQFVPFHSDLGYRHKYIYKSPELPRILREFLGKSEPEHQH
- Test name: ABHD12 activity by competitive ABPP with FP-TAMRA
- Assay type: biochemical
- Condition info: 100 µM compound; competitive ABPP with probe FP-TAMRA (250 nM); read-out: ABHD12 Inhibition (%)
Structures can show the parent of a compound that is named as a salt.
Output: class label from activity. Mapping: lower level = under 70%, middle level = from 70% up to 80%, upper level = 80% and over

{"Compound": "O=C1CCC[C@@H]2[C@H]3CCCN4CCC[C@@H](CN12)[C@@H]34 [compound 49, (+)-Matrine]", "Label class": "upper level"}
{"Compound": "O=C(CCc1ccc(O)cc1)c1c(O)cc(O)cc1O [compound 66, Dihydronaringenin]", "Label class": "upper level"}
{"Compound": "O=C(O)/C=C/c1ccc(O)c(O)c1", "Label class": "upper level"}
{"Compound": "C=C1C(=O)O[C@H]2[C@H]1CC/C(C)=C/CC[C@@]1(C)O[C@@H]21 [compound 65, (-)-Parthenolide]", "Label class": "upper level"}
{"Compound": "O=c1c(O)c(-c2ccc(O)cc2O)oc2cc(O)cc(O)c12 [compound 51, Morin hydrate]", "Label class": "lower level"}
{"Compound": "C[N+](C)(C)CC(O)CC(=O)O (racemic) [compound 27, DL-Carnitine HCl]", "Label class": "middle level"}
